Quick list: Ki per entry.
Target: Serotonin transporter (SERT)
Assay: biochemical
Numbers only here, please. The scale is nM.

These recorded examples may help you get a feel for the data.
COc1ccccc1-c1c2n(c(=O)n(CCCCN3CCCC(c4c[nH]c5ccc(F)cc45)C3)c1=O)CCCC2 (centres undefined) :: 40
COc1ccc(-c2c3n(c(=O)n(CCCCN4CCCC(c5c[nH]c6ccccc56)C4)c2=O)CCCC3)cc1 (centres undefined) :: 52
COc1ccc(-c2c3n(c(=O)n(CCCCN4CCCC(c5c[nH]c6ccc(F)cc56)C4)c2=O)CCCC3)cc1 (centres undefined) :: 42

Please find the next compound below.
Under Serotonin transporter (SERT): report Ki of COc1ccc2[nH]cc(C3CCCN(CCCCn4c(=O)c(-c5ccccc5C)c5n(c4=O)CCCC5)C3)c2c1 (centres undefined) .
66

----------
// pKi collected for 5-hydroxytryptamine receptor 6 (Homo sapiens, UniProt P50406)
Scale note: pKi = -log10(concentration in M).

# example entries with known answers
O=c1c(-c2ccc(F)cc2)c2n(c(=O)n1CCCCN1CCCC(c3c[nH]c4ccccc34)C1)CCCC2 (stereo not drawn) :: 5.78
O=c1c(-c2ccc(F)cc2)c2n(c(=O)n1CCCCN1CCCC(c3c[nH]c4ccc(F)cc34)C1)CCCC2 (stereo not drawn) :: 6.14

Moving on to the next molecule.
# return recorded pKi for entry COc1ccc(-c2c3n(c(=O)n(CCCCN4CCCC(c5c[nH]c6ccc(OC)cc56)C4)c2=O)CCCC3)cc1 (stereo not drawn)
6.34

----------
Target: Serotonin transporter (SERT)
Assay: biochemical
measure name: pKi
Answer as the number alone; pKi is minus log10 of concentration in mol/L.

Example entries and their recorded answers appear below.
COc1ccc2[nH]cc(C3CCCN(CCCCn4c(=O)c(-c5ccccc5OC)c5n(c4=O)CCCC5)C3)c2c1 (stereo not drawn) :: 6.62
O=c1c(-c2ccccc2F)c2n(c(=O)n1CCCCN1CCCC(c3c[nH]c4ccc(F)cc34)C1)CCCC2 (stereo not drawn) :: 7.55
COc1ccc(-c2c3n(c(=O)n(CCCCN4CCCC(c5c[nH]c6ccc(OC)cc56)C4)c2=O)CCCC3)cc1 (stereo not drawn) :: 7.28
Cc1ccccc1-c1c2n(c(=O)n(CCCCN3CCCC(c4c[nH]c5ccccc45)C3)c1=O)CCCC2 (stereo not drawn) :: 7.21
Cc1ccc(-c2c3n(c(=O)n(CCCCN4CCCC(c5c[nH]c6ccc(F)cc56)C4)c2=O)CCCC3)cc1 (stereo not drawn) :: 6.63

Provide one value: measured pKi of COc1ccc2[nH]cc(C3CCCN(CCCCn4c(=O)c(-c5ccccc5Cl)c5n(c4=O)CCCC5)C3)c2c1 (stereo not drawn)
7.30

Output measured pKi for this item: COc1ccc2[nH]cc(C3CCCN(CCCCn4c(=O)c(-c5ccc(F)cc5)c5n(c4=O)CCCC5)C3)c2c1 (stereo not drawn)
7.12

Read the entry COc1ccc2[nH]cc(C3CCCN(CCCCn4c(=O)c(-c5ccccc5)c5n(c4=O)CCCC5)C3)c2c1 (stereo not drawn) and write its reported pKi.
6.99

Give the reported pKi for this compound. O=c1c(-c2ccccc2)c2n(c(=O)n1CCCCN1CCCC(c3c[nH]c4ccc(F)cc34)C1)CCCC2 (stereo not drawn)
6.98

Please indicate pKi recorded for O=c1c(-c2ccccc2F)c2n(c(=O)n1CCCCN1CCCC(c3c[nH]c4ccccc34)C1)CCCC2 (stereo not drawn)
7.82

Identify measured pKi associated with COc1ccc2[nH]cc(C3CCCN(CCCCn4c(=O)c(-c5ccc(C)cc5)c5n(c4=O)CCCC5)C3)c2c1 (stereo not drawn)
6.49

Indicate the recorded pKi value for this compound: Cc1ccccc1-c1c2n(c(=O)n(CCCCN3CCCC(c4c[nH]c5ccc(F)cc45)C3)c1=O)CCCC2 (stereo not drawn)
6.85

Tell me its pKi given Cc1ccc(-c2c3n(c(=O)n(CCCCN4CCCC(c5c[nH]c6ccccc56)C4)c2=O)CCCC3)cc1 (stereo not drawn) as the entry.
7.30

Using the record for O=c1c(-c2ccc(F)cc2)c2n(c(=O)n1CCCCN1CCCC(c3c[nH]c4ccccc34)C1)CCCC2 (stereo not drawn) , state its measured pKi.
7.89

Please look at this compound and report its pKi: COc1ccc2[nH]cc(C3CCCN(CCCCn4c(=O)c(-c5ccccc5F)c5n(c4=O)CCCC5)C3)c2c1 (stereo not drawn)
6.63

Specify pKi for COc1ccc2[nH]cc(C3CCCN(CCCCn4c(=O)c(-c5ccc(Cl)cc5)c5n(c4=O)CCCC5)C3)c2c1 (stereo not drawn) and stop.
7.64

Give reported pKi value for COc1ccccc1-c1c2n(c(=O)n(CCCCN3CCCC(c4c[nH]c5ccccc45)C3)c1=O)CCCC2 (stereo not drawn)
7.60

For O=c1c(-c2ccccc2Cl)c2n(c(=O)n1CCCCN1CCCC(c3c[nH]c4ccccc34)C1)CCCC2 (stereo not drawn) , write its pKi.
8.10

Consider the compound O=c1c(-c2ccccc2Cl)c2n(c(=O)n1CCCCN1CCCC(c3c[nH]c4ccc(F)cc34)C1)CCCC2 (stereo not drawn) . State its measured pKi.
7.33

Given O=c1c(-c2ccccc2)c2n(c(=O)n1CCCCN1CCCC(c3c[nH]c4ccccc34)C1)CCCC2 (stereo not drawn) , respond with its pKi.
7.57

Quickly give me recorded pKi for O=c1c(-c2ccc(Cl)cc2)c2n(c(=O)n1CCCCN1CCCC(c3c[nH]c4ccccc34)C1)CCCC2 (stereo not drawn)
7.52

Given the compound O=c1c(-c2ccc(F)cc2)c2n(c(=O)n1CCCCN1CCCC(c3c[nH]c4ccc(F)cc34)C1)CCCC2 (stereo not drawn) , write its reported pKi.
7.51

Please give measured pKi of the following entry: O=c1c(-c2ccc(Cl)cc2)c2n(c(=O)n1CCCCN1CCCC(c3c[nH]c4ccc(F)cc34)C1)CCCC2 (stereo not drawn)
6.59
